# assay.details: protein stability index of a GFP-peptide fusion (yeast GPS) (PSI 1-4); higher = more stable; sorted into four equal gates, so the index is relative within each strain
# particulars: doa10∆
readout.kind: protein stability index

INSERT INTO measurements (polymer_sequence, readout_kind, endpoint_value) VALUES
  ('SMMSDGIEHFDIPPPAI [RPO31]', 'protein stability index', 1.97),
  ('LMSCISVGTDPMPIITF [RPB2]', 'protein stability index', 2.26),
  ('QLAVANEIIRSLSDEVM [SIR4]', 'protein stability index', 3.16),
  ('ARKSKEEREAAASKVKL [RPC53]', 'protein stability index', 3.16),
  ('RLKEINGWEKYLHNVEL [ISW2]', 'protein stability index', 2.97),
  ('SFILSSLEDPQVRKKQI [YDL116W/NUP84]', 'protein stability index', 1.94),
  ('TMVIQDEDWSVRIDKAL [ECM29]', 'protein stability index', 2.84),
  ('MRILPRETDPLVYNMTS [RPT4]', 'protein stability index', 3.07),
  ('ESEEAETKDIRKQIQLL [SRB4]', 'protein stability index', 2.53),
  ('SKPESSVLQLIVSEDHI [MED1]', 'protein stability index', 2.14),
  ('CINELDNWNAPLIMATC [RPO31]', 'protein stability index', 3.18),
  ('SEEKIRDYSKEILGINL [SIR4]', 'protein stability index', 3.17),
  ('PHDLIIGTADIFIRQLK [BRR2]', 'protein stability index', 2.11),
  ('DFDGDEMNLHVPQTEEA [RPO31]', 'protein stability index', 3.03),
  ('APKGSTDPKELYNNAHV [RPC40]', 'protein stability index', 2.92),
  ('KGRAYKRLLYTRRFVNV [RPS30A]', 'protein stability index', 2.38),
  ('MTAVRRSTRIRTKSQVI [IRR1]', 'protein stability index', 2.9),
  ('IVGPDLAVLALVIVKKG [RPS6A]', 'protein stability index', 1.26),
  ('KKEATKPAFSFGINTNT [YLR335W/NUP2]', 'protein stability index', 2.99),
  ('VSYMMPSLYRLLNILIT [SRB8]', 'protein stability index', 1.22),
  ('DAHGVTQARVITGNKIM [RPS13]', 'protein stability index', 2.21),
  ('TKTNVDNNSKAEASFTF [YLR335W/NUP2]', 'protein stability index', 3.05),
  ('LSHIVYFLVLSPYGNLQ [RPN5]', 'protein stability index', 1.53),
  ('AKLESLLENSVDKNFDK [MTW1]', 'protein stability index', 3.39),
  ('NTQDLLLLLSLFKKITN [YML103C/NUP188]', 'protein stability index', 1.26),
  ('EITVVKPDSDIVALSSE [PRE6]', 'protein stability index', 3.1),
  ('IFKIVQSRLMSTSYHLN [MED6]', 'protein stability index', 2.25),
  ('DSAKEWPQSKNCEYEDP [RPB3]', 'protein stability index', 3.6),
  ('LQIKRDVLDDLYRKLQR [CSE2]', 'protein stability index', 2.94),
  ('QRRYVIKEKVQFNATIN [ITC1]', 'protein stability index', 1.47);

----------
# assay.details: protein stability index of a GFP-peptide fusion (yeast GPS) (PSI 1-4); higher = more stable; sorted into four equal gates, so the index is relative within each strain
# particulars: san1∆
Assign 1.0 whenever protein stability index does not fall below 3; assign 0.0 whenever it does.

INSERT INTO measurements (polymer_sequence, assigned_label) VALUES
  ('NNANVLGGEINDNEDDD [BRR2]', 1.0),
  ('GVNELAPIPKGRVKYTK [POP1]', 1.0),
  ('VDPARRQILFKYPMYMQ [MED6]', 0.0),
  ('QMMSKGIGALFTQQELQ [RPC34]', 1.0),
  ('NTKEIAVDLEHHDYRSY [RRP6]', 1.0),
  ('WGTLQSVSPQMNAILTD [SMD1]', 0.0);

----------
# assay.details: protein stability index of a GFP-peptide fusion (yeast GPS) (PSI 1-4); higher = more stable; sorted into four equal gates, so the index is relative within each strain
# particulars: doa10∆
readout.kind: protein stability index

INSERT INTO measurements (polymer_sequence, readout_kind, endpoint_value) VALUES
  ('LLVNPDIDLETYSFIDN [YML103C/NUP188]', 'protein stability index', 2.79),
  ('LNVKCTRNPDAPKGSTD [RPC40]', 'protein stability index', 3.19),
  ('LATPVQFELLSRRWRQR [BRR2]', 'protein stability index', 1.79),
  ('MINGVYYNEISRDLDIS [POP6]', 'protein stability index', 2.09),
  ('QSSAIGALQESVEAYLV [HHT1]', 'protein stability index', 2.04),
  ('NVVGKLISIISSVIQNY [YML103C/NUP188]', 'protein stability index', 1.79),
  ('PQTMEHYKQQIAVLIEL [YCS4]', 'protein stability index', 3.01),
  ('LPQFRSSIQESLLSLVG [ECM29]', 'protein stability index', 1.87),
  ('ILAAAHRDAYSGGSVNL [PRE2]', 'protein stability index', 2.86),
  ('PKIDEDDTWYNLTEFVQ [AAR2]', 'protein stability index', 3.17),
  ('SVVLTLQAFGESESTTN [RPB3]', 'protein stability index', 2.42),
  ('CDYYNTFLLNNKNIDIG [RPN2]', 'protein stability index', 3.14),
  ('VASSTNFTSPTAVVNNA [SWI1]', 'protein stability index', 2.64),
  ('LQRDLIQTKEQVSINSN [YIL149C/MLP2]', 'protein stability index', 2.78),
  ('AIAGNSTTNSDVSLLLQ [RGR1]', 'protein stability index', 3.09),
  ('AMTAAEHGLHAPAYAWS [CYT1]', 'protein stability index', 3.16),
  ('VLRLRGALVDRTQPWSI [RPS0A]', 'protein stability index', 2.65),
  ('SDIKQGYTQHGGLRPFG [PRE9]', 'protein stability index', 3.5),
  ('DTIATSATPNAAAFSQQ [GAL11]', 'protein stability index', 2.6),
  ('LNLKFKEKWPSLELQSF [YML103C/NUP188]', 'protein stability index', 2.72),
  ('RRGTALGIKKEKRIQYA [RPB2]', 'protein stability index', 1.95),
  ('ASSNFPFLNETKPGVYY [RPC82]', 'protein stability index', 3.09),
  ('EATLLTNSNNGSSNNNT [SNF5]', 'protein stability index', 3),
  ('GSPSLTSPQYIPSPLSS [NUT1]', 'protein stability index', 2.56),
  ('HSPFPFNRTKGKMVRAQ [PRP8]', 'protein stability index', 1.84),
  ('MDLFMSTLGDCLGIKDE [GAL11]', 'protein stability index', 3.54),
  ('GGGYFSAAGMTAAIDSV [FAS1]', 'protein stability index', 3.11),
  ('EGIEKMGVRTFSQKEMA [FAS2]', 'protein stability index', 2.96),
  ('PNFLGNCNIKDFKPPYI [SWP82]', 'protein stability index', 2.62),
  ('AVTEATSTNGDSENNEE [RGR1]', 'protein stability index', 3.13),
  ('TIEVLDEVITEGQADID [POP7]', 'protein stability index', 2.94),
  ('LLIEFPYLPKHYLVLLV [YJR042W/NUP85]', 'protein stability index', 1.98),
  ('KIAYRGVKDCQEGLITT [SSN2]', 'protein stability index', 2.08),
  ('KIDLLSGQFYFRNPTPL [RGR1]', 'protein stability index', 2.67),
  ('QFINLAGYKKLGLKFDD [QCR7]', 'protein stability index', 2.43),
  ('SDREMAALIASKVYYNL [RPN2]', 'protein stability index', 1.91),
  ('WRKSDRELTKNILWRIA [SIR4]', 'protein stability index', 2.91),
  ('DVNIIGKDRIAINVFPE [RPO31]', 'protein stability index', 2.75),
  ('QFTLYDRELNEVINQME [SMC3]', 'protein stability index', 3.01),
  ('EISTSKKNNLEFGTYGK [RPN14]', 'protein stability index', 2.6),
  ('KPIQNGEIIDISAFTQF [ARP9]', 'protein stability index', 3.02),
  ('GQGAFGNMCRGGRMFAP [RPL4A]', 'protein stability index', 3.61),
  ('ELPLVITMPATNGKPDM [ARP7]', 'protein stability index', 2.9),
  ('LQDDEDHKFPIRENKVT [BRN1]', 'protein stability index', 2.7),
  ('VPNSSDQAELPNNASSH [SNF2]', 'protein stability index', 2.26),
  ('GGVPTTSFGQPQSAPNQ [YOR098C/NUP1]', 'protein stability index', 2.33),
  ('DWVENELEALKLEAEEI [FAS2]', 'protein stability index', 3.29),
  ('GFGILEDGMIIDVNLNF [RRP40]', 'protein stability index', 3.08),
  ('HPVSLISFAIYSALNST [RRP42]', 'protein stability index', 1.53),
  ('NDIPQTESPLKTVDSSI [SSN2]', 'protein stability index', 2.99),
  ('EATAASHERFFLSQGLH [CSN12]', 'protein stability index', 1.43),
  ('VTSSFFYRGNYTDFENT [FAS1]', 'protein stability index', 2.05),
  ('HATVVPPEEFSNTIDEL [SRB7]', 'protein stability index', 3.19),
  ('IGGLIPQWKRHLEEYGY [YCS4]', 'protein stability index', 2.47),
  ('ADGQTLFAGYTDNVIRV [ASC1]', 'protein stability index', 1.85),
  ('LEEKKKRPNNKTLEKLE [IRR1]', 'protein stability index', 3.55),
  ('DLPDTEGLELLGWIHTQ [PRP8]', 'protein stability index', 2.75),
  ('VAGLEDKFRKACSSSGR [SIR3]', 'protein stability index', 3.16),
  ('DEKDYLTNQQPKNLSTP [CSE2]', 'protein stability index', 3.04),
  ('VKPQYDEIHIPAPSKPV [BRR2]', 'protein stability index', 2.59);
